Where do the numbers come from? From patent US7034047B2.

Target: GLYT1 subtype of the glycine transporter (Rattus norvegicus)
Construct: C6 glioma cell expressing GLYT1 subtype of the glycine transporter
Sequence (P28572 1-638): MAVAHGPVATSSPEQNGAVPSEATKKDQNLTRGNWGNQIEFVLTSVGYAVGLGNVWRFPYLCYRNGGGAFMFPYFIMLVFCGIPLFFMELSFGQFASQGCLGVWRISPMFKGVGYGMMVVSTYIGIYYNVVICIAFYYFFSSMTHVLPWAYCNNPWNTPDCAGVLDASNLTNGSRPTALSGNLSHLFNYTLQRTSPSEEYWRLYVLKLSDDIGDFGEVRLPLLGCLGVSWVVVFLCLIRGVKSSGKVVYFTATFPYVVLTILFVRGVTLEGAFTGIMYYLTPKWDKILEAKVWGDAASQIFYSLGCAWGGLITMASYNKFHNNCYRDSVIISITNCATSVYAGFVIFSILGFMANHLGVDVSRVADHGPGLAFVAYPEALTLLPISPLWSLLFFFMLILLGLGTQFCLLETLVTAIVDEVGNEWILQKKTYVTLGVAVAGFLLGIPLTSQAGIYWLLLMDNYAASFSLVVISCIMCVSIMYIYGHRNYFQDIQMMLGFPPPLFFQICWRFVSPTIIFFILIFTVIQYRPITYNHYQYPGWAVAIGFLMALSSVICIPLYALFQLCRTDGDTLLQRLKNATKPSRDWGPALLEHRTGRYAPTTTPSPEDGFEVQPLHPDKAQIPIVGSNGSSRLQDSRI
Test: [3H]-glycine uptake assay in C6 glioma cells (action of inhibiting glycine transporter)
Details: 20 min at 37° C., read-out: GLYT-inhibiting activity IC50
Procedure: 1. Action of Inhibiting Glycine Transporter […] After incubation, the buffer was exchanged to a reaction buffer including [^3H]-glycine (about 0.2 μM, 41 Ci/mmol, New England Nuclear)and a compound to be assessed, for incubation at 37° C. for another 20 minutes. […] The cell was dissolved in 0.1N NaOH solution, to assay the radioactivity incorporated with a liquid scintillation counter. […] The test compound was assessed by determining the incorporation-inhibiting ratio of the specific incorporation.
Quantity: IC50 (nM)

| Molecule | IC50 (nM) |
| --- | --- |
| Cc1nnc(-c2ccc(-c3ccccc3)cc2)n1-c1ccccc1[N+](=O)[O-] | 86 |
| Fc1ccccc1-n1c(CN2CCc3sccc3C2)nnc1-c1ccc(-c2ccccc2)cc1 | 1600 |
| Cc1nnc(-c2ccc(-c3cccs3)cc2)n1-c1ccccc1F | 200 |
| CC(C)c1nnc(-c2ccc(-c3ccccc3)cc2)n1-c1ccccc1F | 360 |
| COCCCc1nnc(-c2ccc(-c3ccccc3)nc2)n1-c1cccc(C#N)c1C | 410 |

P = CC(C)c1nnc(-c2ccc(-c3ccccc3)nc2)n1-c1cccc2nonc12
Q = CCc1nnc(-c2ccc(-c3ccccc3)cc2)n1-c1ccccc1OC [Compound 3, reference compound]
Q. Which is greater in IC50, the first item P or the second item Q ? To answer, give the label that identifies your chosen option.
A. Q
(Q: 350 nM, P: 100 nM)

###

biological target: GLYT1 subtype of the glycine transporter (Rattus norvegicus, UniProt P28572); construct: C6 glioma cell expressing GLYT1 subtype of the glycine transporter; assay: [3H]-glycine uptake assay in C6 glioma cells (action of inhibiting glycine transporter); conditions: 20 min at 37° C., read-out: GLYT-inhibiting activity IC50
pIC50: −log10 of the molar value.
Quantity: pIC50

Example results:
| Compound | Tested Target | Measured |
| --- | --- | --- |
| COc1ccccc1-n1c(C)nnc1-c1ccc(-c2ccccc2)cc1 [Compound 1, reference compound] | GLYT1 subtype of the glycine transporter (Rattus norvegicus, UniProt P28572) | 6.00 |
| CN(CCCSc1nnc(-c2ccc(-c3ccccc3)cc2)n1-c1ccccc1F)CC(=O)O [Example 157] | GLYT1 subtype of the glycine transporter (Rattus norvegicus, UniProt P28572) | 5.82 |
| c1ccc(-c2ccc(-c3nnc(-c4ccco4)n3-c3ccccc3)cc2)cc1 [Compound 2, reference compound] | GLYT1 subtype of the glycine transporter (Rattus norvegicus, UniProt P28572) | 5.34 |
| CCc1nnc(-c2ccc(-c3ccccc3)cc2)n1-c1ccccc1Oc1cccnc1 [Example 279] | GLYT1 subtype of the glycine transporter (Rattus norvegicus, UniProt P28572) | 5.34 |
| COCCN(C)c1nnc(-c2ccc(-c3ccccc3)nc2)n1-c1ccccc1C#N [Example 8] | GLYT1 subtype of the glycine transporter (Rattus norvegicus, UniProt P28572) | 6.60 |
| CN(CC1CCCO1)c1nnc(-c2ccc(-c3ccccc3)cc2)n1-c1ccccc1F (centres unmarked) [Example 236] | GLYT1 subtype of the glycine transporter (Rattus norvegicus, UniProt P28572) | 6.03 |

A = COCCN(C)c1nnc(-c2ccc(-c3ccccc3)nc2)n1-c1cccc2nonc12 [Example 9]
B = CC(C)c1nnc(-c2cnc(-c3ccccc3)c(Cl)c2)n1-c1c(F)cccc1F [Example 112]
Q. // select label with min value of measured pIC50 from [ A , B ] To answer, give the label that identifies your chosen option.
A. B
(B: 6.00, A: 6.48)
